Target: T1, recombinant human RNF43 extracellular domain (human, UniProt Q68DV7 24-197)
T1 construct: extracellular domain; also called huRNF43; human RNF43 ECD
T1 sequence (looked up): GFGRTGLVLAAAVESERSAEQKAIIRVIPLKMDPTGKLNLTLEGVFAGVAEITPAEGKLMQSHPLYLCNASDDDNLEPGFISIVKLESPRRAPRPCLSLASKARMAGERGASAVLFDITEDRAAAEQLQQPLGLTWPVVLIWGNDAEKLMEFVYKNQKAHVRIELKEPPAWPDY
Test: SPR Biacore 8K; antibody captured on Protein A; RNF43 ECD analyte; 25 C

- BINDER: "RNF43-86 (antibody, V domains shown, Rat clone; VH/VL only) VH: EVQLVESGGGLVQPGRSLKLSCAASGFTFTNYYMAWVRQAPTKGLEWVASISPSGDTTYYPDSVKGRFTVSRDNAKSTQYLQMDNLRSEDTATYYCARDAYTYYGYKGWYFDFWGPGTMVTVSS VL: QFVLTQPNSVSTNLGSAVKLSCKRSTDDIGSNYVNWYQQHEGRSPTTMIYRDDKRPDGVPDRFSGSIDRSSNSALLTINNVQTEDEADYFCQSYSSGIYIFGGGTKLTVL"
  Kd (nM): 17.3
- BINDER: "RNF43-22 (antibody, V domains shown, Rabbit clone; VH/VL only) VH: QEQLEESGGDLVKPGASLTLTCTASGFSVSNSYYMCWVRQAPGKGLEWIACINTGSSGSTYYASWAKGRFTISKTSSTTVTLQMTTLTAADTATYFCARGYAGYAGYGQFNLWGPGTLVTVSS VL: AYDMTQTPASVEVAVGGTVTIKCQASQSISSYLAWYQQKPGQRPKVLIYDVSKLASGVPSRFKGSGSGTQFTLTISGVECADAATYYCQQGYSMSNVDNTFGGGTEVVVK"
  Kd (nM): 0.5
- BINDER: "RNF43-69 (antibody, V domains shown, Rat clone; VH/VL only) VH: EVQLVESGGGLVQPGRSLKLSCAASGFTFSDYYMAWVRQAPKKGLEWVASITYEGSSTYYGDSVKGRFTISRDNAKSTLYLQMNSLRSEDTATFYCARHLDYGYDYAWYFDFWGPGTMVTVSS VL: DIVLTQSPTTLSVTPGETVSLSCRTSHSIGTNLHWYQQKTNESPRLLIKYASQSISGIPSRFSASGSGTDFTLNINNVEFDDVSSYFCQQTQSWPLTFGSGTKLEIK"
  Kd (nM): 16.8
- BINDER: "RNF43-90 (antibody, V domains shown, Rat clone; VH/VL only) VH: QVQLKESGPGLVQPSQTLSLTCTVSGFSLTSYSVHWVRQHSGNRLEWMGRMWSAGDTSFNSAFTSRLNITRDTSKSQVFLKMNSLQTEDTGTYYCVRSFYNAGYPFDYWGQGVMVTVSS VL: DTVLTQSPALAVSPGERVTISCRASDSVIKLMNWYQQKPGQRPKLLIYLASHLASGVPARFSGSGSGTDFTLTIDPVETDDTATYYCQQSRNDPTFGPGTKLELK"
  Kd (nM): 0.29
- BINDER: "RNF43-168 (antibody, V domains shown, Rat clone; VH/VL only) VH: QVQLKESGPGLVQPSQTLSLTCTVSGFSLNRYHVSWVRQPPGKGLEWMGVVWTGGSTAYNSLLKSRLSISRDISKSQVFLKMISLQTEDTATYYCVSQYYGYTSYFDYWGQGVMVTVSS VL: DIQMTQSPASLSASPEEIVTVTCQASQDIDNWLTWYQQKPGKSPQLLIYSATSLADGIPSRFSGSRSGTQYSLKIDRLQVEDTGIYYCLQRYGNPWTFGGGTKLELK"
  Kd (nM): 1.36
- BINDER: "RNF43-14 (antibody, V domains shown, Rabbit clone; VH/VL only) VH: QSVEESGGRLVTPGTPLTLTCTVSGIDLSSYAMGWVRQAPGKGLEYIGFIYASGSTYYASWAKGRFTISKTSTTVDLKITSPTTEDTATYFCARDSSETINYFNIWGPGTLVTVSL VL: NIVMTQTPSPVSGAVGGTVTIKCQASQSISNWLAWYQQKPGQPPKVLIYRASTLASGVSSRFKGSGSGTEFTLTISDLECADAATYYCQQGYYISYLDNAFGGGTEVVVK"
  Kd (nM): 0.8
- BINDER: "RNF43-180 (antibody, V domains shown, Rat clone; VH/VL only) VH: EAQLVESGGGLVRPGRSLKLTCAASGFTFSHYDMAWVRQAPARGLEWVASIGPGGGLTHYRDSVKGRFTVSRDHAESSLYLQMDSLRSEDTATYYCARHYGWSYFDYWGQGVMVTVSS VL: DIQMTQSPSFLSASLGDSITITCHASQNIKGWLAWYQQKSGNAPELLIYTASGLRSGVPSRFSGSGSGTDYILTISNLQPEDFATYYCQHYQSFPNTFGAGTKLELR"
  Kd (nM): 2.81
- BINDER: "RNF43-56 (antibody, V domains shown, Rat clone; VH/VL only) VH: EVQLVESGGGLVQPGTSLKISCVASGFTFSDYWMSWVRQTPGRTMEWIGDIKYDGSYTNYAPSLKNRFTISRDNAKSILYLQMNNVRSEDTATYYCTRDAYGYNYVHYGLDAWGQGASVTVSS VL: QFVLTQPNSVSSNLGSTVKLSCNRSTGNIGSNYVSWYQQHEGRSPTTMIYRDDKRPDGIPDRFSGSIDGSSNSALLTINNVQTEDEADYFCQSYSSDIKYIFGGGTKLTVL"
  Kd (nM): 1.84
- BINDER: "RNF43-15 (antibody, V domains shown, Rabbit clone; VH/VL only) VH: QEQLEESGGDLVKPGASLTLTCTASRFSFSNDDVICWVRQAPGKGLEWIGCIATINGNTAYATWAKGRFTSSKTSSTTVTLQMTRLTAADTATYFCARWDTGSEHVTLWGPGTLVTVSS VL: AYDMTQTPASVEVAVGGTVTIKCQASQSISSYLAWYQQKPGQPPKPLIYEASKLASGVPSRFSGSGSGTQFTLTISGVQCADAATYYCQQGASWSNVDNVFGGGTEVVVK"
  Kd (nM): 8
- BINDER: "RNF43-126 (antibody, V domains shown, Rat clone; VH/VL only) VH: EVQLQESGPGLVKPSQSLSLTCSVTGFSITSSHRWNWIRKFPGNKLEWMGYINSAGSTNYNPSLKSRISITRDTSKNQFFLQVNSVTTEDTATYYCTRLGLQYRDFDYWGQGVMVTVSS VL: DIQMTQSPASLSASLGETISIECRASDDIYSNLAWYQQKSGKSPQLLIYAANRLKDGVPSRFSGSGSGTQYSLKISGMQTEDEGDYFCLQASKFPLTFGSGTKLEIK"
  Kd (nM): 1.75
